system: CEM cells; test: Intrinsic toxicity of test compound in uninfected CEM cells (MTT); type: cell-based; details: human, 7 days
MEASURED_ATTRIBUTE: TD50

Give the reported TD50 for this compound. `COc1ccc(S(=O)(=O)N(CC(C)C)C[C@@H](O)[C@H](Cc2ccccc2)NC(=O)[C@H](C)C(C)(C)C(=O)O)cc1`
200,000 nm

Give the reported TD50 for this compound. CC(C)CCN(C[C@@H](O)[C@H](Cc1ccccc1)NC(=O)[C@H](C)C(C)(C)C(N)=O)S(=O)(=O)c1ccccc1 (single isomer, unassigned)
60,000 nm

Give the reported TD50 for this compound. `CC(C)CN(C[C@@H](O)[C@H](Cc1ccccc1)NC(=O)[C@H](C)C(C)(C)C(=O)O)S(=O)(=O)c1ccccc1`
220,000 nm

Give the reported TD50 for this compound. `CC(C)CN(C[C@@H](O)[C@H](Cc1ccccc1)NC(=O)[C@H](C)C(C)(C)C(N)=O)S(=O)(=O)c1ccccc1`
62,000 nm
